target: hNav1.7 (Homo sapiens); assay: Selectivity fluorimetric assay, HEK-293 cells; conditions: read-out: IC50, antagonistic activity over Nav1.7
Sequence (Q15858 whole entry): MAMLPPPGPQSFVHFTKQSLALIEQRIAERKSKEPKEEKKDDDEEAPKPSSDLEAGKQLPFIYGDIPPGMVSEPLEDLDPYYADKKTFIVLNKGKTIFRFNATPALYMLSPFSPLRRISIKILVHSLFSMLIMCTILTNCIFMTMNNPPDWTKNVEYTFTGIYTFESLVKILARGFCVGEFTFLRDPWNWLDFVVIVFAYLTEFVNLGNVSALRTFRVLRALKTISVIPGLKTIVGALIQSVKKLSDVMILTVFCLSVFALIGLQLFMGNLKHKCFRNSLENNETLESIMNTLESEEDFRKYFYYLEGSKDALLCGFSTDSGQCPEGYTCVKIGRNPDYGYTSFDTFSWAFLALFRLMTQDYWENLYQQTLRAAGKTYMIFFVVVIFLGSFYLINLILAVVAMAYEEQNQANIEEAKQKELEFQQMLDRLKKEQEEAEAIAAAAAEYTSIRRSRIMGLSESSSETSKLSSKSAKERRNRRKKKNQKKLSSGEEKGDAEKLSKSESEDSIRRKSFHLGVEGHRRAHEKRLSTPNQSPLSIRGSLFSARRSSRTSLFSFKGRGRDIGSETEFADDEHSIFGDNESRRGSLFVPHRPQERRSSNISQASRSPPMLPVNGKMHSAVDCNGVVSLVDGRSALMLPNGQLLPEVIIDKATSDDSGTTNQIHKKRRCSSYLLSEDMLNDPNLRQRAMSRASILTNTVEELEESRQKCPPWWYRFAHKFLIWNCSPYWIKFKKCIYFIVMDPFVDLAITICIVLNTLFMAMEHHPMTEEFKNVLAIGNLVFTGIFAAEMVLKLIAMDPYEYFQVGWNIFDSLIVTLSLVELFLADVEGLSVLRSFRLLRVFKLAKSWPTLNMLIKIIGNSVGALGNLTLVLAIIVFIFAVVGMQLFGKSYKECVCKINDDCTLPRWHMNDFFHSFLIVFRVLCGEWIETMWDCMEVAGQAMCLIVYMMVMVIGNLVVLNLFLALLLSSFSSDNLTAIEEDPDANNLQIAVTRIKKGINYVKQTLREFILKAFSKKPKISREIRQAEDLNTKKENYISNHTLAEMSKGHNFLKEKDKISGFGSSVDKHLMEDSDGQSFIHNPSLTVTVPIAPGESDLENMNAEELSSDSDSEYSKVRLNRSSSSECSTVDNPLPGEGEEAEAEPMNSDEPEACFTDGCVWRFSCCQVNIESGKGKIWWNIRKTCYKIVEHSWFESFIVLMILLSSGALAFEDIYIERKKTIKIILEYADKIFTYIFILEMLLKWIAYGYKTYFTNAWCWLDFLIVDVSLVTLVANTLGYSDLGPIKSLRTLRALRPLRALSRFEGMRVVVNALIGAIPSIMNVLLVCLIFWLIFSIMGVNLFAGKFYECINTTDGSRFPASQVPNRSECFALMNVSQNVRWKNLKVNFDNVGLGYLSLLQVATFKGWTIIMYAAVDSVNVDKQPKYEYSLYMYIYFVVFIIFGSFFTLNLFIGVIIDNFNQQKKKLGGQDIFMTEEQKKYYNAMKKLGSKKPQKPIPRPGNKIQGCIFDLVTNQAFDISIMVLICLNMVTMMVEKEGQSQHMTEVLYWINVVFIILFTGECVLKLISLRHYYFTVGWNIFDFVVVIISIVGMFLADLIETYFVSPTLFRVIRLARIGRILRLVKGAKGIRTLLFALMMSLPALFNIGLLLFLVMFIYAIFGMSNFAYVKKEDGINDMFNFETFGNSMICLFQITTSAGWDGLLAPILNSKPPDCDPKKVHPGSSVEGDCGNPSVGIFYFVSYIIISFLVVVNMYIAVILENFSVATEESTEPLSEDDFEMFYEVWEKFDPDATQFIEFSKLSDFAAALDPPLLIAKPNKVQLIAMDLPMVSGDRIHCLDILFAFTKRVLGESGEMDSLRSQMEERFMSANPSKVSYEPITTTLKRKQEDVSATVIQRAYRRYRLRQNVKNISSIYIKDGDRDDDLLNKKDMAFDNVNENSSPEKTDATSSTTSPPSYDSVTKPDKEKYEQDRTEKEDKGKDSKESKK
Would you kindly list IC50 for each of these compounds?

What value of IC50 has been reported for the following compound? "O=C(NCc1ccc(F)cc1)[C@@H]1Cc2c([nH]c3ccccc23)CN1"
> 10 µM

// lookup IC50 for "COC(=O)[C@@H]1Cc2c([nH]c3ccccc23)[C@@H](c2ccccc2)N1Cc1ccccc1"
> 10 µM

* * *

biological target: rat isoform of TRPM8 channels (Rattus norvegicus); construct: expressed in transfected cells; experiment: Ca2+ fluorimetric assay, menthol-activated channel; format: cell-based; conditions: HEK-293 cells stably expressing rat TRPM8, menthol as agonist; mean ± SD of at least three measurements; read-out: IC50
Sequence (Q8R455 whole entry, canonical isoform): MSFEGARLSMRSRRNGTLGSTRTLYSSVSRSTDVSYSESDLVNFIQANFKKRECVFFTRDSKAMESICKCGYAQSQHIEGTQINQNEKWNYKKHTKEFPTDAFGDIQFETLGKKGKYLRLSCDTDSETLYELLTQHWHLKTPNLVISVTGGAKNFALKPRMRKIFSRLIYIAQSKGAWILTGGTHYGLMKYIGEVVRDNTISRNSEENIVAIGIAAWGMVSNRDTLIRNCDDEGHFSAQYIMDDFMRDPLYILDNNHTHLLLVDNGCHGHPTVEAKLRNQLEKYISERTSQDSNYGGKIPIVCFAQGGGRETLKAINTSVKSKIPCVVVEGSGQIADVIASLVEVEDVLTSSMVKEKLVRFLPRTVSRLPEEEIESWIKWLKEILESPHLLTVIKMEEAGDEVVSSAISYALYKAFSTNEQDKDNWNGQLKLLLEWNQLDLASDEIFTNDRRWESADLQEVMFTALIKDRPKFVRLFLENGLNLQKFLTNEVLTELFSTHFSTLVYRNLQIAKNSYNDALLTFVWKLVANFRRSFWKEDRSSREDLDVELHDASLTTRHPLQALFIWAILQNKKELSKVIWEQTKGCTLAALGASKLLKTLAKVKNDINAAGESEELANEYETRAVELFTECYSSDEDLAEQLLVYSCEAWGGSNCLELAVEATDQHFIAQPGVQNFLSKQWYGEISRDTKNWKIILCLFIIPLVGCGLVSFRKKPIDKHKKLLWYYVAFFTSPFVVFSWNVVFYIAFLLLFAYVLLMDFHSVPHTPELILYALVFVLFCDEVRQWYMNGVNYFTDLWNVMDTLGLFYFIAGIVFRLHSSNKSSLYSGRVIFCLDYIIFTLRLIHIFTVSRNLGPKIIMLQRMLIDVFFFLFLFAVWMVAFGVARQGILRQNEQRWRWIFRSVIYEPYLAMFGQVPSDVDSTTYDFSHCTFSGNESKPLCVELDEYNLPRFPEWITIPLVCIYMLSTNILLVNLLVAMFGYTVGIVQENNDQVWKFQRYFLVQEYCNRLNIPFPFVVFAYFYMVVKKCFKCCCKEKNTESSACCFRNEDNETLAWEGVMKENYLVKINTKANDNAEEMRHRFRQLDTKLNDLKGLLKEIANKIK
ENDPOINT: IC50

Item under review: "COC(=O)[C@@H]1Cc2c([nH]c3ccccc23)[C@H](c2ccccc2)N1Cc1ccccc1" . Reported IC50?
1.6 µM

Entry COC(=O)CC[C@@H]1N[C@H](C(=O)NCc2ccc(F)cc2)Cc2c1[nH]c1ccccc21 [11b] : reported IC50 = ?
3 µM

Can you share its IC50? I mean this compound: O=C1[C@@H]2Cc3c([nH]c4ccccc34)[C@@H](c3ccc(F)cc3)N2C(=O)N1Cc1ccccc1 [33a]
6.4 µM

Which IC50 is reported for this compound? O=C1[C@H]2Cc3c([nH]c4ccccc34)[C@H](c3ccc(Cl)cc3)N2C(=O)N1Cc1ccc(F)cc1 [31a′]
> 30 µM

Requested read-out: IC50. Entry: "O=C(NCc1ccc(F)cc1)[C@@H]1Cc2c([nH]c3ccccc23)CN1"
0.9 µM

Param item = O=C1[C@@H]2Cc3c([nH]c4ccccc34)[C@@H](c3ccc(F)cc3)N2C(=O)N1c1ccc(F)cc1 [38a] ; retrieve measured IC50.
6.7 µM

I'd like to know its IC50. The compound in question is CC(C)C[C@@H]1N[C@H](C(=O)NCc2ccc(F)cc2)Cc2c1[nH]c1ccccc21 [10b]
6.2 µM

Entry under review: Cc1ccc(CN2C(=O)[C@H]3Cc4c([nH]c5ccccc45)[C@H](c4ccc(Cl)cc4)N3C2=O)cc1 [30a′] . Reported IC50?
2.3 µM

May I ask what IC50 has been recorded for "COC(=O)[C@@H]1Cc2c([nH]c3ccccc23)[C@@H](c2ccccc2)N1Cc1ccccc1" ?
1.3 µM

Requested read-out: IC50. Entry: CC(C)C[C@H]1N[C@H](C(=O)NCc2ccc(F)cc2)Cc2c1[nH]c1ccccc21 [10a]
4.6 µM

# IC50 lookup, item NCCCN1C(=O)[C@H]2Cc3c([nH]c4ccccc34)[C@H](c3ccc(F)cc3)N2C1=O [35a′]
27.2 µM

Please give the measured IC50 for this compound: "O=C1N[C@H](Cc2ccccc2)C(=O)N2Cc3[nH]c4ccccc4c3C[C@@H]12"
0.4 µM

Value lookup for IC50; key = O=C1[C@H]2Cc3c([nH]c4ccccc34)[C@H](c3ccc(F)cc3)N2C(=O)N1Cc1ccccc1 [33a′]
17.5 µM

Need IC50, item O=C1[C@H]2Cc3c([nH]c4ccccc34)[C@H](c3ccc(F)cc3)N2C(=O)N1c1ccc(F)cc1 [38a′]
7.2 µM

Param item = CC(C)C[C@H]1c2[nH]c3ccccc3c2C[C@H]2C(=O)N[C@@H](Cc3ccccc3)C(=O)N21 [25b] ; retrieve measured IC50.
1.3 µM

Name the recorded IC50 for COc1ccc(CN2C(=O)[C@H]3Cc4c([nH]c5ccccc45)[C@H](CC(C)C)N3C2=O)cc1 [29a′] .
22.9 µM

All figures here come from paper PMC8009520.
